Tested on: SNB-75
ASSAY OVERVIEW: Growth inhibition of human SNB75 cells assessed as cell growth at 10 uM after 48 hrs by SRB assay
Type: functional
MEASUREMENT SETUP: SNB-75, 48 h, read-out: Activity
Measured growth at 10 µM, listed per entry for reference.
PROPERTY LABEL: growth at 10 µM

{"MOL SMILES": "CNC(=O)OC[C@H]1O[C@@H](n2cnc3c(NC(=O)Nc4ccccc4)ncnc32)[C@H](O[Si](C)(C)C(C)(C)C)[C@@H]1O[Si](C)(C)C(C)(C)C", "MEASUREMENT TARGET": "SNB-75", "READING": "76.6%"}
{"MOL SMILES": "CNC(=O)NC[C@H]1O[C@@H](n2cnc3c(NC(=O)Nc4ccccc4)ncnc32)[C@H](O[Si](C)(C)C(C)(C)C)[C@@H]1O[Si](C)(C)C(C)(C)C", "MEASUREMENT TARGET": "SNB-75", "READING": "73%"}
{"MOL SMILES": "CCOC(=O)C[C@H]1[C@@H](O[Si](C)(C)C(C)(C)C)[C@H](n2cnc3c(NC(=O)Nc4ccccc4)ncnc32)O[C@@H]1CNC(=O)NC", "MEASUREMENT TARGET": "SNB-75", "READING": "85%"}
{"MOL SMILES": "CNC(=O)NC[C@H]1O[C@@H](n2cnc3c(NC(=O)Nc4ccccc4)ncnc32)[C@H](O[Si](C)(C)C(C)(C)C)[C@@H]1CC(=O)N(C)OC", "MEASUREMENT TARGET": "SNB-75", "READING": "84%"}
